# Test system: FADD−/− Jurkat cells
# Method: Necroptosis inhibition assay, TNF-α-induced necroptosis (CellTiter-Glo 2.0)
# Type: cell-based, human
# Conditions Used: compound 1 μM; TNF-α 15 ng/mL
Assignment: determine reported Necroptosis inhibition assay (Rescue %) 1 μM for the given compounds.
Numbers only, in %.

Hey, quick one: what's Necroptosis inhibition assay (Rescue %) 1 μM for each of these?
1. Nc1ncc(-c2cnn(C3CCN(C(=O)COC4CCN(C(=O)C5CCN(c6ccc7c(c6)C(=O)N(C6CCC(=O)NC6=O)C7=O)CC5)CC4)CC3)c2)nc1C(=O)O[C@@H](C(=O)Nc1ccc(F)cc1)c1ccccc1 (stereo partly shown)
2. Nc1ncc(-c2cnn(C3CCN(CCOCCOCCNC(=O)C4CN(c5cccc6c5C(=O)N(C5CCC(=O)NC5=O)C6=O)C4)CC3)c2)nc1C(=O)O[C@@H](C(=O)Nc1ccc(F)cc1)c1ccccc1 (stereo partly shown)
3. Nc1ncc(-c2cnn([C@H]3CCN(CC4CCN(C(=O)COc5ccc6c(c5)C(=O)N(C5CCC(=O)NC5=O)C6=O)CC4)C3)c2)nc1C(=O)OC(C(=O)Nc1ccc(F)cc1)c1ccccc1 (stereo partly shown)
4. Nc1ncc(C2=CCN(C(=O)COCCOCCNC(=O)C3CN(c4cccc5c4C(=O)N(C4CCC(=O)NC4=O)C5=O)C3)CC2)cc1C(=O)O[C@@H](C(=O)Nc1ccc(F)cc1)c1ccccc1 (stereo partly shown)

Result:
36.81
12.42
75.95
2.91

Hey, quick one: what's Necroptosis inhibition assay (Rescue %) 1 μM for each of these?
1. Nc1ncc(-c2cnn(C3CCN(C(=O)COCCOCCNC(=O)C4CN(c5cccc6c5C(=O)N(C5CCC(=O)NC5=O)C6=O)C4)CC3)c2)nc1C(=O)O[C@@H](C(=O)Nc1ccc(F)cc1)c1ccccc1 (stereo partly shown)
2. Nc1ncc(-c2cnn(C3CCN(CCCCCCNc4ccc5c(c4)C(=O)N(C4CCC(=O)NC4=O)C5=O)CC3)c2)nc1C(=O)O[C@@H](C(=O)Nc1ccc(F)cc1)c1ccccc1 (stereo partly shown)
3. Nc1ncc(-c2cnn(C3CCN(C(=O)CC4CCN(C(=O)C5CCN(c6cccc7c6C(=O)N(C6CCC(=O)NC6=O)C7=O)CC5)CC4)CC3)c2)nc1C(=O)O[C@@H](C(=O)Nc1ccc(F)cc1)c1ccccc1 (stereo partly shown)

Result:
50.37
10.65
38.23

###

Assignment: determine reported Degradation assay (Degradation %) 10 μM for the given molecules.
# Target Of Assay: MLKL (Homo sapiens)
# Sequence (Q8NB16 whole entry): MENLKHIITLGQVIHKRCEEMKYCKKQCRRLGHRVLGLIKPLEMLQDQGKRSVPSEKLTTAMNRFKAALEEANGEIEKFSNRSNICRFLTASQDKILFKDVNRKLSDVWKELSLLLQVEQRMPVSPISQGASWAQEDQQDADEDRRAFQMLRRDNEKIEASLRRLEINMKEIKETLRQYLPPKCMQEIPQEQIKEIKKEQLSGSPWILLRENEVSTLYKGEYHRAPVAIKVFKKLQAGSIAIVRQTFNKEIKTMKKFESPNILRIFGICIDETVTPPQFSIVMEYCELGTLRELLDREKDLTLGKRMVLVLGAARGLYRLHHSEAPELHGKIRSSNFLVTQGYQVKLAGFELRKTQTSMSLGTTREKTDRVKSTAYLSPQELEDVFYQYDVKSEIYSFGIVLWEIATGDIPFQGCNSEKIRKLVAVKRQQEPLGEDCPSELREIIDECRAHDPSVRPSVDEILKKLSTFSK
# Method: MLKL degradation assay in HepG2 cell line (western blot)
# Assay type: cell-based
# Design: endogenous in cells; host or cells: HepG2 or HaCaT
# Conditions Used: compound 10 μM; cell line not given
Give bare numbers, in %.

Known Degradation assay (Degradation %) 10 μM results, listed for orientation:
Nc1ncc(-c2cnn(C3CCN(CCCN4CCN(C(=O)CNc5cccc6c5C(=O)N(C5CCC(=O)NC5=O)C6=O)CC4)CC3)c2)nc1C(=O)OC(C(=O)Nc1ccc(F)cc1)c1ccccc1 (stereo not shown)	64.03
Nc1ncc(-c2cnn(C3CCN(CCC4CCN(C(=O)COc5cccc6c5C(=O)N(C5CCC(=O)NC5=O)C6=O)CC4)CC3)c2)nc1C(=O)O[C@@H](C(=O)Nc1ccc(F)cc1)c1ccccc1 (stereo partly shown)	60.19

Hey, quick one: what's Degradation assay (Degradation %) 10 μM for each of these?
1. Nc1ncc(-c2cnn(C3CCN(C(=O)CCCCCNC(=O)CNc4cccc5c4C(=O)N(C4CCC(=O)NC4=O)C5=O)CC3)c2)nc1C(=O)O[C@@H](C(=O)Nc1ccc(F)cc1)c1ccccc1 (stereo partly shown)
2. Nc1ncc(-c2cnn(C3CCN(CCOCCNC(=O)C4CN(c5cccc6c5C(=O)N(C5CCC(=O)NC5=O)C6=O)C4)CC3)c2)nc1C(=O)O[C@@H](C(=O)Nc1ccc(F)cc1)c1ccccc1 (stereo partly shown)
3. Nc1ncc(-c2cnn(C3CCN(CCCC4CCN(C(=O)COc5ccc6c(c5)C(=O)N(C5CCC(=O)NC5=O)C6=O)CC4)CC3)c2)nc1C(=O)O[C@@H](C(=O)Nc1ccc(F)cc1)c1ccccc1 (stereo partly shown)
4. Nc1ncc(-c2cnn(C3CCN(CCC4CCN(CC5CCN(C(=O)Cc6cccc(NC7=CC(=O)N(C8CCC(=O)NC8=O)C7=O)c6)CC5)CC4)CC3)c2)nc1C(=O)O[C@@H](C(=O)Nc1ccc(F)cc1)c1ccccc1 (stereo partly shown)
5. Nc1ncc(-c2cnn(C3CCN(CC4CCN(CCC5CCN(C(=O)Cc6cccc(NC7=CC(=O)N(C8CCC(=O)NC8=O)C7=O)c6)CC5)CC4)CC3)c2)nc1C(=O)O[C@@H](C(=O)Nc1ccc(F)cc1)c1ccccc1 (stereo partly shown)
6. Nc1ncc(-c2cnn(C3CCN(C[C@H]4CC[C@H](CNC(=O)CNc5cccc6c5C(=O)N(C5CCC(=O)NC5=O)C6=O)CC4)CC3)c2)nc1C(=O)O[C@@H](C(=O)Nc1ccc(F)cc1)c1ccccc1 (stereo partly shown)

Result:
1. 8.02
2. 81.59
3. 88.98
4. 84.86
5. 86.37
6. 85.06

Hey, quick one: what's Degradation assay (Degradation %) 10 μM for each of these?
1. Nc1ncc(-c2cnn(C3CCN(CCC4CCN(C(=O)CCc5cccc6c5C(=O)N(C5CCC(=O)NC5=O)C6=O)CC4)CC3)c2)nc1C(=O)O[C@@H](C(=O)Nc1ccc(F)cc1)c1ccccc1 (stereo partly shown)
2. Nc1ncc(-c2cnn(C3CCN(CC4CCN(c5cc6c(cc5F)C(=O)N(C5CCC(=O)NC5=O)C6=O)CC4)CC3)c2)nc1C(=O)O[C@@H](C(=O)Nc1ccc(F)cc1)c1ccccc1 (stereo partly shown)
3. Nc1ncc(-c2cnn(C3CCN(CCCN4CCN(C(=O)COc5ccc6c(c5)C(=O)N(C5CCC(=O)NC5=O)C6=O)CC4)CC3)c2)nc1C(=O)O[C@@H](C(=O)Nc1ccc(F)cc1)c1ccccc1Cl (stereo partly shown)

Result:
[86.31, 86.43, 88.82]
